# System: HuT78
# ASSAY_SUMMARY: Cellular cytotoxicity against HUT-78 cells.
# Assay type: functional
# RUN_PARAMETERS: Homo sapiens
Could you please report measured CC50 for the items listed next?
One number for each entry, in µM.

Answered examples (3):
c1cc(CN2CCCNCCNCCNCCC2)ccc1CN1CCCNCCNCCNCCC1; 500
NCCCNCCNCCCNCc1ccc(CN2CCCNCCNCCCNCC2)cc1; 445
c1cc(CN2CCCNCCNCCCNCC2)ccc1CN1CCCNCCCNCCCNCC1; 225

Provide CC50 for all items below, preserving their order.
1. C1CNCCNCCCN[C@H]([C@@H]2CNCCCNCCNCCCN2)CNC1
2. c1cc(CN2CCCNCCCNCCNCCC2)cc(CN2CCCNCCCNCCNCCC2)c1
3. c1cc(CC2CNCCNCCCNCCNC2)ccc1CC1CNCCNCCCNCCNC1
4. c1ncc(CN2CCCNCCNCCCNCC2)cc1CN1CCCNCCNCCCNCC1
5. c1cc(CN2CCCNCCNCCNCCC2)ccc1CN1CCCNCCCNCCCNCCC1

## Output
369
403
406
395
121
